Reference source: the Immune Epitope Database (IEDB)

Biological target: HLA-A*68:02
Test: IEDB peptide-MHC binding, purified MHC/competitive/radioactivity; filed as Kd, often an IC50 or EC50 that approximates it; bounds were set here for any values at or beyond the usual limits of such assays
Conditions: source organism: Dengue virus 2 Jamaica/1409/1983
Here the recorded pKd is given for each entry.
Answer as the number alone; pKd is minus log10 of concentration in mol/L.

LAANAICSAV
8.04

Continue with the sequence presented below.
With HLA-A*68:02 as the test system, provide measured pKd for this sequence: QVMLLILCV
5.76

* * *

Molecular target: HLA-A*02:01
Test: IEDB peptide-MHC binding, purified MHC/direct/fluorescence; filed as Kd, often an IC50 or EC50 that approximates it; bounds were set here for any values at or beyond the usual limits of such assays
Settings: source organism: Listeria monocytogenes
measured property: pKd
Answer as the number alone; pKd is minus log10 of concentration in mol/L.

Give me measured pKd, please, for this sequence: GLYEWISEQ
6.75
